Tested on: OVCAR-5
EXPERIMENT SUMMARY: NCI tumour cell line growth inhibition, 48 h
Active and inactive are the calls of the source. Cut-off read from the data, not from the text of the source: active = GI50 up to about 1.1 µM and inactive = higher. Residues, ends and D or L forms follow the SMILES beside them.
Hi! Could you answer with just one of these? t = active, f = inactive

Examples with answers:
| COMPOUND | ASSIGNED LABEL |
| --- | --- |
| Oc1cc(-c2cccc(OCc3ccccc3)c2)nc2cc3c(cc12)OCO3 | f |
| O=C(CC(=O)N1N=C(c2ccccc2)C(/N=N/c2ccc(S(=O)(=O)CCOS(=O)(=O)O)cc2)C1=O)Nc1ccc(Cl)cc1 (configuration not stated) | f |
| CN1CCN(c2ccc([N+](=O)[O-])c3no[n+]([O-])c23)CC1 | f |

stdin: How was CC(NC(=N)N)C(=O)O (configuration not stated) classified in this test?
stdout: f

stdin: How was CCCCCNC(=O)C1C(=O)N(CCCCC)C(=O)/C1=N\N (configuration not stated) classified in this test?
stdout: f

stdin: How was O=C(CCc1ccc(O)cc1)c1c(O)cc(O)cc1OC1OC(CO)C(O)C(O)C1O (configuration not stated) classified in this test?
stdout: f

stdin: How was COc1cc2cc(C(=O)N3CC(CCl)c4c3cc(O)c3ccccc43)[nH]c2c(OC)c1OC (configuration not stated) classified in this test?
stdout: t

stdin: How was CC(=O)NC(CO)C(=O)NC(Cc1ccc(O)cc1)C(=O)NCC(N)=O (stereo not drawn) (Ac-Ser-Tyr-Gly-NH2; configuration not given here) classified in this test?
stdout: f

stdin: How was O=[N+]([O-])c1ccc(OP(=O)(O)OCC2OC(CP(=O)(O)O)C(O)C2O)cc1 (configuration not stated) classified in this test?
stdout: f

stdin: How was `O=C(N/N=C(COc1ccccc1)\N=C\c1cccnc1)c1ccncc1` classified in this test?
stdout: f

stdin: How was `N#CC1(CCCI)CCCC1` classified in this test?
stdout: f

stdin: How was `COc1nc2[nH]ccc2c(=O)[nH]1` classified in this test?
stdout: f

Reference for the values: ChEMBL document CHEMBL1201862
